Listed binders paired with reported % Inhibition (Sos-mediated nucleotide exchange from Ras, mantGDP)
biological target: Ras (residues 1-166 of human Ha-Ras) (human, UniProt P01112 1-166); assay: cell-based or functional assay
Positions of bridges follow the written chain, without caps; N, C: chain ends. No end group written: not given here.

Worked cases, % Inhibition (Sos-mediated nucleotide exchange from Ras, mantGDP) given:
• FEGIYRLELLK (staple (positions not given here); also: HBS: N-terminal main-chain i,i+4 H-bond replaced by C-C bond (ring-closing metathesis), residues 1-4) [HBS 8] = < 5%
• FGEGIYRTDILRTEEGN [Peptide 2] = < 10%
• FEAIYRLEKLKAEEAN (staple (positions not given here); lactam 9-13; also: HBS: N-terminal main-chain i,i+4 H-bond replaced by C-C bond (ring-closing metathesis), residues 1-4) [HBS 15^] = < 10%

Q: I'd like to know its % Inhibition (Sos-mediated nucleotide exchange from Ras, mantGDP). The binder in question is FEGIYRTDILR [Peptide 5]
A: < 10%
